# System: Enterococcus faecium MDR Van A ATCC 51559
# procedure summary: MIC assay, E. faecium MDR Van A ATCC 51559
# Format: cell-based
# condition label: 24 h incubation, visual reading
attribute measured: Minimum Inhibitory Concentration (MIC) E. faecium ATCC51559

Guide cases for Minimum Inhibitory Concentration (MIC) E. faecium ATCC51559, answers given:
CCCCCCCCCCCCCC(=O)N[C@H](CCCCN)C(=O)N[C@H](CCCCN)C(=O)NCC(=O)NCCNC(=O)[C@H]1NC(=O)[C@H]2NC(=O)[C@H](NC(=O)[C@@H]3NC(=O)[C@H](CC(N)=O)NC(=O)[C@H](NC(=O)[C@@H](CC(C)C)NC)[C@H](O)c4ccc(c(Cl)c4)Oc4cc3cc(c4O[C@@H]3O[C@H](CO)[C@@H](O)[C@H](O)[C@H]3O[C@H]3C[C@](C)(N)[C@H](O)[C@H](C)O3)Oc3ccc(cc3Cl)[C@H]2O)c2ccc(O)c(c2)-c2c(O)cc(O)cc21 [MCC_000227, nC13CO-kkG-NHC2NH-Vanc]	xx (xx = 1-4)
CNC(CC(C)C)C(=O)NC1C(=O)NC(CC(N)=O)C(=O)NC2C(=O)NC3C(=O)NC(C(=O)NC(C(=O)NCCCCC(NC(=O)C(CCCCN)NC(=O)C(CCCCN)NC(=O)C(CCCCN)NC(=O)c4ccc(Oc5ccccc5)cc4)C(=O)O)c4cc(O)cc(O)c4-c4cc3ccc4O)C(O)c3ccc(c(Cl)c3)Oc3cc2cc(c3OC2OC(CO)C(O)C(O)C2OC2CC(C)(N)C(O)C(C)O2)Oc2ccc(cc2Cl)C1O (stereo not drawn)	x (x = >4)
CCCCC=CCCCCCCCC(=O)NC(CCCCN)C(=O)NC(CCCCN)C(=O)NC(CCCCNC(=O)C1NC(=O)C2NC(=O)C(NC(=O)C3NC(=O)C(CC(N)=O)NC(=O)C(NC(=O)C(CC(C)C)NC)C(O)c4ccc(c(Cl)c4)Oc4cc3cc(c4OC3OC(CO)C(O)C(O)C3OC3CC(C)(N)C(O)C(C)O3)Oc3ccc(cc3Cl)C2O)c2ccc(O)c(c2)-c2c(O)cc(O)cc21)C(=O)NC (stereo not drawn)	x (x = >4)
CNC(=O)C(CCCCNC(=O)C1NC(=O)C2NC(=O)C(NC(=O)C3NC(=O)C(CC(N)=O)NC(=O)C(NC(=O)C(CC(C)C)NC)C(O)c4ccc(c(Cl)c4)Oc4cc3cc(c4OC3OC(CO)C(O)C(O)C3OC3CC(C)(N)C(O)C(C)O3)Oc3ccc(cc3Cl)C2O)c2ccc(O)c(c2)-c2c(O)cc(O)cc21)NC(=O)C(CCCCN)NC(=O)C(CCCCN)NC(=O)c1ccc(Oc2ccc(Cl)cc2)cc1 (stereo not drawn)	x (x = >4)
CCCCCCCCCC(=O)N[C@@H](CCCCN)C(=O)N[C@@H](CCCCN)C(=O)N[C@@H](CCCCN)C(=O)NCCNC(=O)[C@H]1NC(=O)[C@H]2NC(=O)[C@H](NC(=O)[C@@H]3NC(=O)[C@H](CC(N)=O)NC(=O)[C@H](NC(=O)[C@@H](CC(C)C)NC)[C@H](O)c4ccc(c(Cl)c4)Oc4cc3cc(c4O[C@@H]3O[C@H](CO)[C@@H](O)[C@H](O)[C@H]3O[C@H]3C[C@](C)(N)[C@H](O)[C@H](C)O3)Oc3ccc(cc3Cl)[C@H]2O)c2ccc(O)c(c2)-c2c(O)cc(O)cc21	xx (xx = 1-4)

According to the records, this compound CCCCCCCCCCCC(=O)N[C@@H](CCCCN)C(=O)N[C@@H](CCCCNC(=O)[C@H]1NC(=O)[C@H]2NC(=O)[C@H](NC(=O)[C@@H]3NC(=O)[C@H](CC(N)=O)NC(=O)[C@H](NC(=O)[C@@H](CC(C)C)NC)[C@H](O)c4ccc(c(Cl)c4)Oc4cc3cc(c4O[C@@H]3O[C@H](CO)[C@@H](O)[C@H](O)[C@H]3O[C@H]3C[C@](C)(N)[C@H](O)[C@H](C)O3)Oc3ccc(cc3Cl)[C@H]2O)c2ccc(O)c(c2)-c2c(O)cc(O)cc21)C(=O)O displays Minimum Inhibitory Concentration (MIC) E. faecium ATCC51559 of xx (xx = 1-4)

According to the records, this compound CCCCCCCCCCC(=O)NC(CCCCN)C(=O)NC(CCCCN)C(=O)NC(CCCCNC(=O)C1NC(=O)C2NC(=O)C(NC(=O)C3NC(=O)C(CC(N)=O)NC(=O)C(NC(=O)C(CC(C)C)NC)C(O)c4ccc(c(Cl)c4)Oc4cc3cc(c4OC3OC(CO)C(O)C(O)C3OC3CC(C)(N)C(O)C(C)O3)Oc3ccc(cc3Cl)C2O)c2ccc(O)c(c2)-c2c(O)cc(O)cc21)C(N)=O (stereo not drawn) displays Minimum Inhibitory Concentration (MIC) E. faecium ATCC51559 of xxx (xxx = 0.1-<1)

According to the records, this compound CCCCCCCCCCCCC(=O)N[C@@H](CCCCN)C(=O)N[C@@H](CCCCN)C(=O)N[C@@H](CCCCNC(=O)[C@H]1NC(=O)[C@H]2NC(=O)[C@H](NC(=O)[C@@H]3NC(=O)[C@H](CC(N)=O)NC(=O)[C@H](NC(=O)[C@@H](CC(C)C)NC)[C@H](O)c4ccc(c(Cl)c4)Oc4cc3cc(c4O[C@@H]3O[C@H](CO)[C@@H](O)[C@H](O)[C@H]3O[C@H]3C[C@](C)(N)[C@H](O)[C@H](C)O3)Oc3ccc(cc3Cl)[C@H]2O)c2ccc(O)c(c2)-c2c(O)cc(O)cc21)C(=O)O displays Minimum Inhibitory Concentration (MIC) E. faecium ATCC51559 of xxx (xxx = 0.1-<1)
